biological target: Ecdysone receptor (Bombyx mori); assay: Ratio of maximum level of gene expression (ecdysone receptor and beta-galactosidase receptor) of compound to maximum level of gene expression with GSTM-E expressed as RMFI; format: functional
property-label: Ratio
Reply: number alone, nothing else.

Ask | Let me know recorded Ratio for "COc1cccc(C(=O)NC2(C(=O)c3cc(C)cc(C)c3)CCS(=O)(=O)CC2)c1C" , thanks.
Reply | 0.1

Ask | Let me know recorded Ratio for "COc1ccccc1C(=O)C1(NC(=O)c2cccc(OC)c2C)CCCCCC1" , thanks.
Reply | 0.78

Ask | Let me know recorded Ratio for COc1cccc(C(=O)NN(C(=O)c2cc(C)cc(C)c2)C(C)(C)C)c1C [METHOXYFENOZIDE] , thanks.
Reply | 1.03

Ask | Let me know recorded Ratio for "COc1cccc(C(=O)NC2(C(=O)c3cc(C)cc(C)c3)CCCC2)c1C" , thanks.
Reply | 0.85

Ask | Let me know recorded Ratio for "Cc1cc(C)cc(C(=O)C2(NC(=O)c3ccc4c(c3C)OCO4)CCCCC2)c1" , thanks.
Reply | 0.81

Ask | Let me know recorded Ratio for "COc1cccc(C(=O)NC2(C(=O)c3cc(C)cc(C)c3)CCSCC2)c1C" , thanks.
Reply | 0.98

Ask | Let me know recorded Ratio for "COc1cccc(C(=O)NC(C)(C)C(=O)c2cc(C)cc(C)c2)c1C" , thanks.
Reply | 0.17

Ask | Let me know recorded Ratio for "COc1ccccc1C(=O)C1(NC(=O)c2cccc(OC)c2C)CCCCC1" , thanks.
Reply | 0.84

Ask | Let me know recorded Ratio for "COc1cccc(C(=O)NC2(C(=O)c3cc(C)cc(C)c3)CCC2)c1C" , thanks.
Reply | 0.69

* * *

So I've got a bunch of compounds here, and I need their pEC50 values.
molecular target: Ecdysone receptor (Choristoneura fumiferana, UniProt O77240); experiment: Dose affording 50% of maximum transactivation for ecdysone receptor from Choristoneura fumiferana (CfEcR) and a luciferase reporter gene in CHO cells
Sequence (O77240 whole entry): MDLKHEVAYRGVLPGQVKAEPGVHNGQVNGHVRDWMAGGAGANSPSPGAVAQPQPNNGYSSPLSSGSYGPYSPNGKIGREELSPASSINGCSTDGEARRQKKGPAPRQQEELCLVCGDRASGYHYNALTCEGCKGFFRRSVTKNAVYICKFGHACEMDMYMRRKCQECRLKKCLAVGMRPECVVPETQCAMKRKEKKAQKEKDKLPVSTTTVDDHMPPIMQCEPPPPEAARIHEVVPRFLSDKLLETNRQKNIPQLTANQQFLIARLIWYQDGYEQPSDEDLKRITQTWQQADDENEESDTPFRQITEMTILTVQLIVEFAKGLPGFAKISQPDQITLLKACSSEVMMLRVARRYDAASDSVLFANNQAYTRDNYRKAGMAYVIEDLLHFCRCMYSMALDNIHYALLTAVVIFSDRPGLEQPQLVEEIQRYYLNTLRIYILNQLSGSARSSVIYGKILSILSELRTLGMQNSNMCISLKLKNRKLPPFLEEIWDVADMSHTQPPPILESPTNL
Just so you know, pEC50 here is -log10 of the concentration in molar units; reply with that number alone.

Ask | Report its pEC50 with Ecdysone receptor (Choristoneura fumiferana, UniProt O77240) as the test system: "COc1cccc(C(=O)NC2(C(=O)c3cc(C)cc(C)c3)CC2)c1C"
Reply | 4.48

Ask | Report its pEC50 with Ecdysone receptor (Choristoneura fumiferana, UniProt O77240) as the test system: "COc1ccccc1C(=O)C1(NC(=O)c2cccc(OC)c2C)CCCC1"
Reply | 5.18

Ask | Report its pEC50 with Ecdysone receptor (Choristoneura fumiferana, UniProt O77240) as the test system: "COc1ccccc1C(=O)C1(NC(=O)c2cccc(OC)c2C)CCCCC1"
Reply | 5.99

Ask | Report its pEC50 with Ecdysone receptor (Choristoneura fumiferana, UniProt O77240) as the test system: "COc1cccc(C(=O)NC2(C(=O)c3cc(C)cc(C)c3)CCSCC2)c1C"
Reply | 5.74

Ask | Report its pEC50 with Ecdysone receptor (Choristoneura fumiferana, UniProt O77240) as the test system: "Cc1cc(C)cc(C(=O)C2(NC(=O)c3ccc4c(c3C)OCO4)CCCCC2)c1"
Reply | 5.49

* * *

So I've got a bunch of compounds here, and I need their pEC50 values.
target: Ecdysone receptor (Choristoneura fumiferana); experiment: Dose affording 50% of maximum transactivation for ecdysone receptor from Choristoneura fumiferana (CfEcR) and a luciferase reporter gene in CHO cells
Just so you know, pEC50 here is -log10 of the concentration in molar units; reply with that number alone.

Ask | Let me know recorded pEC50 for "CCc1c(OC)cccc1C(=O)NN(C(=O)c1cc(C)cc(C)c1)C(C)(C)C" , thanks.
Reply | 6.39

Ask | Let me know recorded pEC50 for COc1cccc(C(=O)NN(C(=O)c2cc(C)cc(C)c2)C(C)(C)C)c1C [METHOXYFENOZIDE] , thanks.
Reply | 6.55

Ask | Let me know recorded pEC50 for "CCC(CC)(NC(=O)c1cccc(OC)c1C)C(=O)c1cc(C)cc(C)c1" , thanks.
Reply | 5.21
